The origin of these recorded values is patent US8598173B2.

I'd appreciate it if you could supply pIC50 values for the items below.
- System: HT-29 (colon)
- run.description: Cell growth inhibition assay (SRB), HT-29
- Assay type: cell-based
- measurement.conditions: Homo sapiens; SRB method, 96 hours incubation, HT-29 (colon); read-out: IC50, HT-29
Give bare numbers, as −log10 of the molar value.

Please review the entries below; each comes with its answer.
[[record]]
structure_smiles_string = "COc1nc2cc(C)ccc2nc1NC(=O)N1CCN(c2cc(C)cc(C)c2)CC1"
val = 6.62

[[record]]
structure_smiles_string = "COc1nc2cc(F)ccc2nc1NC(=O)N1CCN(c2cc(C)cc(C)c2)CC1"
val = 6.05

[[record]]
structure_smiles_string = "COc1cc(OC)cc(N2CCN(C(=O)Nc3nc4ccc(Cl)cc4nc3OC)CC2)c1"
val = 6.60

[[record]]
structure_smiles_string = "COc1cc(OC)cc(N2CCN(C(=O)Nc3nc4ccc(C)cc4nc3OC)CC2)c1"
val = 6.47

[[record]]
structure_smiles_string = "COc1nc2cc(Cl)ccc2nc1NC(=O)N1CCN(c2cc(C)cc(C)c2)CC1"
val = 6.34


Known value: HT-29 (colon) pIC50 of the compound COc1ccc2nc(NC(=O)N3CCN(c4cc(C)cc(C)c4)CC3)c(OC)nc2c1 equals 6.11
